Listing of recorded % inhibition Apo pol 5' by entry.
# target_or_test_system: UniProt:Q8ILY1
# method_summary: Fluorescence-based high-throughput DNA polymerase assay (molecular beacon), primary screen and dose-response
# Format: biochemical
# particulars: DRC-2; 5'; concentration 2.5
Please state the figure in %; there is no need to write the unit.

// solved cases for % inhibition Apo pol 5' follow
# molecule, result_type, observed_measurement
records = [
    ("O=C1c2ccccc2C(=O)N1Oc1ccc([N+](=O)[O-])c([N+](=O)[O-])c1", "% inhibition Apo pol 5'", 1.26),
    ("COc1ccc(-c2cc(=O)c3cc(O)ccc3o2)cc1OC", "% inhibition Apo pol 5'", -0.529),
    ("O=C(Nc1c2c(nn1-c1ccccc1)CSC2)c1ccco1", "% inhibition Apo pol 5'", 24),
]

In: Give recorded % inhibition Apo pol 5'. `O=C1CCCC2=C1C(c1ccccn1)C1=C(CCCC1=O)O2`
Out: 5

In: Give recorded % inhibition Apo pol 5'. `O=C(O)c1ccc(-c2nc3cc(-c4ccc5nc(-c6ccc(C(=O)O)cc6)[nH]c5c4)ccc3[nH]2)cc1`
Out: 30

In: Give recorded % inhibition Apo pol 5'. `N#CC(=NNc1cc(C(F)(F)F)cc(C(F)(F)F)c1)C(=O)c1ccco1`
Out: 6

In: Give recorded % inhibition Apo pol 5'. `Nc1c(S(=O)(=O)O)cc(Nc2ccccc2)c2c1C(=O)c1ccccc1C2=O`
Out: 2.61

In: Give recorded % inhibition Apo pol 5'. O=C(Cn1ccc2c(=O)[nH]ccc21)Nc1cccc(Cl)c1 [Molecule 23, O=C(Cn1ccc2c1cc[nH]c2=O)Nc1cccc(c1)Cl]
Out: 7

In: Give recorded % inhibition Apo pol 5'. `Cc1ccc(N2NC(=O)/C(=C\c3ccc(O)c([N+](=O)[O-])c3)C2=O)cc1Cl`
Out: 11

In: Give recorded % inhibition Apo pol 5'. `O=c1cc(CN2CCCCC2)c2cc3c(cc2o1)OCO3`
Out: 5.61

In: Give recorded % inhibition Apo pol 5'. `CCOC(=O)C1=C2c3cc(OC)c(OC)cc3CC(C)(C)N2C(=O)C1=O`
Out: -4

---

# target_or_test_system: P. falciparum apicoplast DNA polymerase (Pf-apPOL) (Plasmodium falciparum, UniProt Q8ILY1)
# Sequence (Q8ILY1 entry or part of it): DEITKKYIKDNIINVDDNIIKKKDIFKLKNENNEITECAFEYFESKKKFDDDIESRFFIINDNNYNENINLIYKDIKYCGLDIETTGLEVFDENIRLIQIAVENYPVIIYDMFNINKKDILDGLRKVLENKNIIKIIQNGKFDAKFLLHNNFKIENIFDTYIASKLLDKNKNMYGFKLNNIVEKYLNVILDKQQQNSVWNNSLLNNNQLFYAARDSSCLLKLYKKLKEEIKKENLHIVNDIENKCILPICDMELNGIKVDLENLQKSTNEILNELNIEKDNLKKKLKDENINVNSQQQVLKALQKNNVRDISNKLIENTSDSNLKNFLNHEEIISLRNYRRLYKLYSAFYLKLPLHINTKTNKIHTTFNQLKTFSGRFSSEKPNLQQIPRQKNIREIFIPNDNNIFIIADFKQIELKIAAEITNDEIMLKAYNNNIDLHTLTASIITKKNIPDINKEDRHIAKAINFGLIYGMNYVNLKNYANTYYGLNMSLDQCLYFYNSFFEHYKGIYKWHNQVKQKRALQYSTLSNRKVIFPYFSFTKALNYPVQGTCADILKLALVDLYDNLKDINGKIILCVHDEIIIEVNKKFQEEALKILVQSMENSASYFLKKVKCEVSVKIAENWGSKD
# method_summary: Fluorescence-based high-throughput DNA polymerase assay (molecular beacon), primary screen and dose-response
# Type: biochemical
# particulars: DRC-2; 40'; concentration 40
Decision: % inhibition Apol 40' >= 70% yields Condition met, all other cases yield Condition not met.

Answered examples (4):
# compound, discrete_label
data = [
    ("CN(C)C1C(c2ccccc2)=C(c2ccccc2)SC(c2ccccc2)C1[N+](=O)[O-] (stereo not shown)", "Condition not met"),
    ("OC(C#Cc1ccccc1)c1ccco1 (stereo not shown)", "Condition not met"),
    ("O=C(c1c[nH]c2ncccc12)N1CCCC1 [Molecule 63, O=C(c1c[nH]c2c1cccn2)N1CCCC1]", "Condition not met"),
    ("O=c1[nH]c2ccc(Br)cc2c(-c2ccccc2)c1C1=NNC(c2ccco2)C1 (stereo not shown)", "Condition met"),
]

Note: attention shifts to another entry.
In: Would you say `Cc1ccc(C)c(CSc2nc(C3CCCCC3)c(C#N)c(=O)[nH]2)c1` shows % inhibition Apol 40' at minimum 70%?
Out: Condition met

---

# target_or_test_system: P. falciparum apicoplast DNA polymerase (Pf-apPOL) (Plasmodium falciparum, UniProt Q8ILY1)
# method_summary: Fluorescence-based high-throughput DNA polymerase assay (molecular beacon), primary screen and dose-response;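 for % inhibition apPOL 180': test concentration in µM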
# Type: biochemical
# particulars: DRC-1; concentration 10; 180'
# Excerpt: The HT assay employs a molecular beacon, a stem-loop DNA template with a Cy3 dye and the Black Hole Quencher on the 3′ and 5′ ends of the DNA, respectively. Pf-apPOL concentration is based on a calculated absorptivity of ε280 = 56750 M^−1 cm^−1. […] To identify apPOL inhibitors we utilised our previously developed high-throughput DNA polymerase assay. […] The assay accurately recapitulates the kinetic behaviour of apPOL, as measured through more conventional low-throughput gel-based assays. […]
Listing of recorded % inhibition apPOL 180' by entry.
Please state the figure in %; there is no need to write the unit.

# compound, result_type, observed_measurement
data = [
    ("Cc1cc(C)nc(Nc2nc(CC(=O)Nc3nc(-c4ccco4)cs3)cs2)n1", "% inhibition apPOL 180'", 29.1586),
    ("CCCN1COc2ccc3c(=O)c(-c4ccccc4)coc3c2C1", "% inhibition apPOL 180'", 37.4083),
    ("COc1ccc(-c2occ(C(=O)O)c2C(=O)O)cc1", "% inhibition apPOL 180'", 35.5357),
    ("Cc1ccnc(NS(=O)(=O)c2ccc(-n3cccc3)cc2)n1", "% inhibition apPOL 180'", 9.9045),
]

In: Provide the reported % inhibition apPOL 180' (system: P. falciparum apicoplast DNA polymerase (Pf-apPOL) (Plasmodium falciparum, UniProt Q8ILY1)) for `CCc1ccccc1NC(=O)c1ccc(-c2ncccc2NC(C)=O)cc1`
Out: 9.63

In: Provide the reported % inhibition apPOL 180' (system: P. falciparum apicoplast DNA polymerase (Pf-apPOL) (Plasmodium falciparum, UniProt Q8ILY1)) for `O=C(Cc1cccs1)N1CCN(c2nc(CN3CCOCC3)cs2)CC1`
Out: 19

In: Provide the reported % inhibition apPOL 180' (system: P. falciparum apicoplast DNA polymerase (Pf-apPOL) (Plasmodium falciparum, UniProt Q8ILY1)) for `COc1cc(/C=C2\C(=O)N(c3ccc(C(=O)O)cc3)N=C2C(F)(F)F)ccc1OCC(C)C`
Out: 21.4839

---

Listing of recorded % inhibition Apol 40' 40 by entry.
# target_or_test_system: P. falciparum apicoplast DNA polymerase (Pf-apPOL) (Plasmodium falciparum, UniProt Q8ILY1)
# method_summary: Fluorescence-based high-throughput DNA polymerase assay (molecular beacon), primary screen and dose-response
# Format: biochemical
# particulars: DRC-2; read at 40'; concentration 40
# include the unit after the value

// solved cases for % inhibition Apol 40' 40 follow
# molecule, % inhibition Apol 40' 40
data = [
    ("COc1ccc(C2CC(c3ccc(Cl)cc3Cl)Nc3nc(N)nn32)cc1OC (stereo not shown) [Molecule 43]", "49%"),
    ("Cc1ccsc1Cn1c(C)ccc1C [Molecule 70, Cc1ccsc1Cn1c(C)ccc1C]", "56%"),
    ("COc1ccccc1CC(=O)N1CCc2c(nc3cc(-c4ccccc4Cl)[nH]n3c2=O)C1 [Molecule 49]", "64%"),
]

In: Provide the reported % inhibition Apol 40' 40 (system: P. falciparum apicoplast DNA polymerase (Pf-apPOL) (Plasmodium falciparum, UniProt Q8ILY1)) for O=C(CCc1csc(NC(=O)Nc2ccccc2)n1)Nc1nc2ccccc2s1 [KU0177354]
Out: 53%

---

Listing of recorded % inhibition Apol 90' by entry.
# target_or_test_system: P. falciparum apicoplast DNA polymerase (Pf-apPOL) (Plasmodium falciparum, UniProt Q8ILY1)
# method_summary: Fluorescence-based high-throughput DNA polymerase assay (molecular beacon), primary screen and dose-response
# Format: biochemical
# particulars: DRC-1; 90'; conc 5
Please state the figure in %; there is no need to write the unit.

# compound, output_unit, % inhibition Apol 90'
data = [
    ("Cc1ccc(CNC(=O)c2cnn3c(O)cc(CSc4ccc(Cl)cc4)nc23)cc1 [Molecule 99]", "%", 10.3916),
]

In: Give recorded % inhibition Apol 90'. O=C1NN(c2ccc(Cl)c(Cl)c2)C(=O)/C1=C/c1ccc(-c2ccc3c(c2)C(=O)OC3)o1 [Molecule 90]
Out: 57.3373

In: Give recorded % inhibition Apol 90'. C=CCOc1c(Br)cc(Br)cc1/C=C1\SC(=N)NC1=O [KU0051640]
Out: -4.076

In: Give recorded % inhibition Apol 90'. CC(C)CCNC(=O)c1cnn2c(O)cc(CSc3ccc(Cl)cc3)nc12 [Molecule 101]
Out: 6.076

In: Give recorded % inhibition Apol 90'. Cc1ccccc1NC(=O)Cn1ccc2c(=O)[nH]ccc21 [Molecule 50, O=C(Cn1ccc2c1cc[nH]c2=O)Nc1ccc(cc1)C]
Out: 12.4445

In: Give recorded % inhibition Apol 90'. O=C1Nc2ccc(I)cc2C1=Cc1cc(Br)c(O)c(Br)c1 [Molecule 27]
Out: 5.358

In: Give recorded % inhibition Apol 90'. Cc1cccc(NC(=O)Cn2ccc3c(=O)[nH]ccc32)c1C [Molecule 11, O=C(Cn1ccc2c1cc[nH]c2=O)Nc1cccc(c1C)C]
Out: 14.6206

---

# target_or_test_system: P. falciparum apicoplast DNA polymerase (Pf-apPOL) (Plasmodium falciparum, UniProt Q8ILY1)
# method_summary: Fluorescence-based high-throughput DNA polymerase assay (molecular beacon), primary screen and dose-response
# Type: biochemical
# particulars: DRC-1; 90'; concentration 40
Listing of recorded % inhibition Apol 90' by entry.
Please state the figure in %; there is no need to write the unit.

// solved cases for % inhibition Apol 90' follow
# compound, % inhibition Apol 90' (%)
rows = [
    ("NS(=O)(=O)c1ccc(NC(=O)c2ccc(N3C(=O)CCC3=O)cc2)cc1", 69.7509),
    ("O=C(Cn1ccc2c(=O)[nH]ccc21)Nc1cc(F)ccc1F [Molecule 42, O=C(Cn1ccc2c1cc[nH]c2=O)Nc1cc(F)ccc1F]", 71.4461),
]

Next, consider the following compound.
In: Give recorded % inhibition Apol 90'. `COc1ccccc1CCC(=O)N1CCc2c(nc3cc(-c4ccccc4)[nH]n3c2=O)C1`
Out: 72
